# IC50 per record follows
target.under.test: dopamine D2 receptor (Rattus norvegicus, UniProt P61169)
Construct: from tissue; host or cells: rat striatal brain tissue homogenate
Sequence (P61169 whole entry): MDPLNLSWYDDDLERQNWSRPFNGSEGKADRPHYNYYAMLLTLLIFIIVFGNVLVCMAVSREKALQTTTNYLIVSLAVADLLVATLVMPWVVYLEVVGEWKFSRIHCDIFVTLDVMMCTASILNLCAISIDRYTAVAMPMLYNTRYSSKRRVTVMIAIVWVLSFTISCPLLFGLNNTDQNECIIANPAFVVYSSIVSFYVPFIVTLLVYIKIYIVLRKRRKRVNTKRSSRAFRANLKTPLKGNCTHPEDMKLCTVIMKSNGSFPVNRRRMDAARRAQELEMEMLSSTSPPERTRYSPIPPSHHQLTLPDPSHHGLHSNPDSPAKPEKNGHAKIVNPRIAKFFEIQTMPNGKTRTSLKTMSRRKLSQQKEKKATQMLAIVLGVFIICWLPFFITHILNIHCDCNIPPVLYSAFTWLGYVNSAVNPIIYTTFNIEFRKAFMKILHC
test.details: Dopamine D2 receptor affinity, 3H-quinpirole binding in homogenized rat striatal brain tissue
recorded.metric: IC50 (nM)

c1ccc2c(CCCNCC3COc4ccc5nocc5c4O3)c[nH]c2c1 (stereo not shown)
4.8
c1ccc(CNCC2COc3ccc4nocc4c3O2)cc1 (stereo not shown)
8.05
C1=C(c2c[nH]c3ccccc23)CCN(CC2COc3ccc4nocc4c3O2)C1 (stereo not shown)
350
Fc1ccc2[nH]cc(CC3CCN(CC4COc5ccc6nocc6c5O4)CC3)c2c1 (stereo not shown)
36.7
c1ccc(CCCCNCC2COc3ccc4nocc4c3O2)cc1 (stereo not shown)
4.1
O=C(c1ccc(F)cc1)C1CCN(CC2COc3ccc4nocc4c3O2)CC1 (stereo not shown)
32.4
c1ccc2c(c1)CCN(CC1COc3ccc4nocc4c3O1)C2 (stereo not shown)
58.8

====

Counter-ions that a name gives are not always drawn.
recorded.metric: melting point (°C)

C1=C(c2c[nH]c3ccccc23)CCN(CC2COc3ccc4nocc4c3O2)C1 (stereo not shown)
110
c1ccc(CNCC2COc3ccc4nocc4c3O2)cc1 (stereo not shown) (as salt: fumarate)
180
c1ccc2c(CCCNCC3COc4ccc5nocc5c4O3)c[nH]c2c1 (stereo not shown) (as salt: oxalate)
230

====

# melting point per record follows
Counter-ions that a name gives are not always drawn.
recorded.metric: melting point

c1ccc2c(c1)CCN(CC1COc3ccc4nocc4c3O1)C2 (stereo not shown) (as salt: fumarate)
175 to 176 °C
Fc1ccc2[nH]cc(CC3CCN(CC4COc5ccc6nocc6c5O4)CC3)c2c1 (stereo not shown) (as salt: oxalate)
202 to 205 °C
O=C(c1ccc(F)cc1)C1CCN(CC2COc3ccc4nocc4c3O2)CC1 (stereo not shown) (as salt: fumarate)
204 to 206 °C
c1ccc(CCCCNCC2COc3ccc4nocc4c3O2)cc1 (stereo not shown) (as salt: fumarate) (hydrate or solvate)
172 to 174 °C
